- Test System: human adenosine A2a receptor (Homo sapiens)
- Construct: membrane preparation
- Sequence (P29274 whole entry): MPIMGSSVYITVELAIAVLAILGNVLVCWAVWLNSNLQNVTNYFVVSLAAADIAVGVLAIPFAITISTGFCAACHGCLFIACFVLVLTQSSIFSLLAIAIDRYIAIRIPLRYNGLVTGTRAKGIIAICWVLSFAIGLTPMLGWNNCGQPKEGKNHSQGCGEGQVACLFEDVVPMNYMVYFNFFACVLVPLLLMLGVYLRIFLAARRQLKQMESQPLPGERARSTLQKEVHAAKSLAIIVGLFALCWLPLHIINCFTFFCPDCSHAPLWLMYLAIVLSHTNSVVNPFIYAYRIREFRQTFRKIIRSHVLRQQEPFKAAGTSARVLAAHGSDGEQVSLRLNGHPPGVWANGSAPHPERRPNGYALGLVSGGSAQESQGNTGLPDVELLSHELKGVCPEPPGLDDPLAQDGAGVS
- Method Notes: Human adenosine A2a receptor radioligand binding assay ([125I]-AB-MECA, CHO cell membranes)
- Assay Conditions: recombinant human A2a receptor expressed in CHO cells; Ki from IC50 by Cheng-Prussoff equation; read-out: hA2a Ki
Ki listing for selected compounds.

# Compound, Ki (nM)
rows = [
    ("COc1ccc(-c2ccccc2)n2nc(NC(=O)c3ccc(F)cc3)nc12 [Example 4]", 114),
    ("COc1ccc(-c2ccccc2)n2nc(NC(=O)c3ccccc3Br)nc12 [Example 22]", 266),
    ("COc1ccc(-c2cccs2)n2nc(NC(=O)c3ccccc3)nc12 [Example 12]", 112),
]

Provenance of the data: patent US6514989B1
